Target: PARK7 (Homo sapiens)
Sequence (Q99497 whole entry): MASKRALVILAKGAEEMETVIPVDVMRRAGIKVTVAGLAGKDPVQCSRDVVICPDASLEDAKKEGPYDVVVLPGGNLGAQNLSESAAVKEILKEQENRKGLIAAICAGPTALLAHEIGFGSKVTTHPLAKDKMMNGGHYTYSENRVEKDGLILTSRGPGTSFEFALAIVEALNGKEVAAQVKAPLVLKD
Assay: High-throughput screen of the crude compound library, PARK7 fluorescence polarization (FP) assay with FP reagent JYQ-107
Assay type: biochemical
Settings: 1.25 µM, crude compound library; read-out: HTS FP assay %Inhibition (1.25 µM)
For each record, write down the corresponding inhibition at 1.25 µM.

Reported inhibition at 1.25 µM for PARK7 (Homo sapiens), given Cn1cc(-c2ocnc2C(=O)N2CCc3nc(NC(=O)[C@@H]4CCN(C#N)C4)sc3C2)cn1 ?
60.9%

Reported inhibition at 1.25 µM for PARK7 (Homo sapiens), given N#CN1CC[C@@H](C(=O)Nc2nc3c(s2)CN(C(=O)c2cn(C4CCC4)nn2)CC3)C1 ?
89.2%

Reported inhibition at 1.25 µM for PARK7 (Homo sapiens), given Cc1nn(C2CCOCC2)c(C)c1C(=O)N1CCc2nc(NC(=O)[C@@H]3CCN(C#N)C3)sc2C1 ?
63%

Reported inhibition at 1.25 µM for PARK7 (Homo sapiens), given CC1=NN(c2ccc(C(=O)N3CCc4nc(NC(=O)[C@@H]5CCN(C#N)C5)sc4C3)cc2)CC1 ?
69.5%

Reported inhibition at 1.25 µM for PARK7 (Homo sapiens), given Cc1ccc(N2CCCC(C(=O)N3CCc4nc(NC(=O)[C@@H]5CCN(C#N)C5)sc4C3)C2)nc1 (some centres unmarked) ?
62.7%

Reported inhibition at 1.25 µM for PARK7 (Homo sapiens), given N#CN1CC[C@@H](C(=O)Nc2nc3c(s2)CN(C(=O)Cc2cccc(OCc4ccccn4)c2)CC3)C1 ?
82.1%

Reported inhibition at 1.25 µM for PARK7 (Homo sapiens), given N#CN1CC[C@@H](C(=O)Nc2nc3c(s2)CN(C(=O)c2cnc(-c4ccco4)s2)CC3)C1 ?
62.8%

Reported inhibition at 1.25 µM for PARK7 (Homo sapiens), given N#CN1CC[C@@H](C(=O)Nc2nc3c(s2)CN(C(=O)C2CCN(C(=O)c4ccc(Cl)s4)CC2)CC3)C1 ?
75.5%

Reported inhibition at 1.25 µM for PARK7 (Homo sapiens), given CC1CCN(c2ncc(C(=O)N3CCc4nc(NC(=O)[C@@H]5CCN(C#N)C5)sc4C3)s2)CC1 ?
77.3%

Reported inhibition at 1.25 µM for PARK7 (Homo sapiens), given N#CN1CC[C@@H](C(=O)Nc2nc3c(s2)CN(C(=O)Cc2csc(NS(=O)(=O)c4ccccc4)n2)CC3)C1 ?
82.7%

Reported inhibition at 1.25 µM for PARK7 (Homo sapiens), given N#CN1CC[C@@H](C(=O)Nc2nc3c(s2)CN(C(=O)C2CC(OCc4ccccc4)C2)CC3)C1 (some centres unmarked) ?
78.9%

Reported inhibition at 1.25 µM for PARK7 (Homo sapiens), given N#CN1CC[C@@H](C(=O)Nc2nc3c(s2)CN(C(=O)c2cccc(-c4ncn[nH]4)c2)CC3)C1 ?
91%

Reported inhibition at 1.25 µM for PARK7 (Homo sapiens), given Cc1cc(NS(=O)(=O)c2cccc(C(=O)N3CCc4nc(NC(=O)[C@@H]5CCN(C#N)C5)sc4C3)c2)no1 ?
77.9%

Reported inhibition at 1.25 µM for PARK7 (Homo sapiens), given COc1ccccc1-c1cc(C(=O)N2CCc3nc(NC(=O)[C@@H]4CCN(C#N)C4)sc3C2)n[nH]1 ?
97.5%

Reported inhibition at 1.25 µM for PARK7 (Homo sapiens), given CC(C(=O)N1CCc2nc(NC(=O)[C@@H]3CCN(C#N)C3)sc2C1)n1ccc(C2CC2)n1 (some centres unmarked) ?
67.1%

Reported inhibition at 1.25 µM for PARK7 (Homo sapiens), given N#CN1CC[C@@H](C(=O)Nc2nc3c(s2)CN(C(=O)c2csc(C4CCCCC4)n2)CC3)C1 ?
87.2%

Reported inhibition at 1.25 µM for PARK7 (Homo sapiens), given N#CN1CC[C@@H](C(=O)Nc2nc3c(s2)CN(C(=O)c2ccc(-n4cccn4)cc2)CC3)C1 ?
70.1%

Reported inhibition at 1.25 µM for PARK7 (Homo sapiens), given N#CN1CC[C@@H](C(=O)Nc2nc3c(s2)CN(C(=O)c2cccc(S(=O)(=O)Nc4ccc(Cl)cc4)c2)CC3)C1 ?
86.7%

Reported inhibition at 1.25 µM for PARK7 (Homo sapiens), given N#CN1CC[C@@H](C(=O)Nc2nc3c(s2)CN(C(=O)C2CCCN2C(=O)C2CC2)CC3)C1 (some centres unmarked) ?
67.1%

Reported inhibition at 1.25 µM for PARK7 (Homo sapiens), given N#CN1CC[C@@H](C(=O)Nc2nc3c(s2)CN(C(=O)Cc2csc(-n4cccc4)n2)CC3)C1 ?
86.7%
